Tested on: 628569-122-R-J1-PDC complex spheroid viability;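 note: spheroids exposed to agents for seven days before readout; 100% = DMSO vehicle control viability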
EXPERIMENT_DESCRIPTION: Anticancer human tumor 628569-122-R-J1-PDC patient-derived head and neck squamous carcinoma cell line growth inhibition [CLK]
MEASUREMENT_SETUP: second compound 1 µM; first compound 0.0316 µM; hits give low values
EXPERIMENTAL_ENDPOINT: viability, T/C (%)

• CCCS(=O)(=O)Nc1ccc(F)c(C(=O)c2c[nH]c3ncc(-c4ccc(Cl)cc4)cc23)c1F + CNC(=O)c1ccc(Nc2nc(OC3CCCC3)c3c(-c4ccc5nc(C)oc5c4)c[nH]c3n2)c(OC)c1 = 48
• Nc1ccccc1NC(=O)c1ccc(CNC(=O)OCc2cccnc2)cc1 + CNC(=O)c1ccc(Nc2nc(OC3CCCC3)c3c(-c4ccc5nc(C)oc5c4)c[nH]c3n2)c(OC)c1 = 42.9
• O=C(c1cc(Cc2n[nH]c(=O)c3ccccc23)ccc1F)N1CCN(C(=O)C2CC2)CC1 + CNC(=O)c1ccc(Nc2nc(OC3CCCC3)c3c(-c4ccc5nc(C)oc5c4)c[nH]c3n2)c(OC)c1 = 39.8
• Nc1ccn(C2OC(CO)C(O)C2(F)F)c(=O)n1 (centres undefined) + CNC(=O)c1ccc(Nc2nc(OC3CCCC3)c3c(-c4ccc5nc(C)oc5c4)c[nH]c3n2)c(OC)c1 = 43.2
• Cn1ncnc1[C@H]1c2n[nH]c(=O)c3cc(F)cc(c23)N[C@@H]1c1ccc(F)cc1 + CN1CCN(c2cc(C(=O)Nc3cc4cc(-c5cnn(C)c5)ccc4cn3)ccn2)CC1 = 6.11
• CCc1c2c(nc3ccc(O)cc13)-c1cc3c(c(=O)n1C2)COC(=O)[C@]3(O)CC + CNC(=O)c1ccc(Nc2nc(OC3CCCC3)c3c(-c4ccc5nc(C)oc5c4)c[nH]c3n2)c(OC)c1 = 40.2
• C=CC(=O)N1CCN(c2nc(=O)n(-c3c(C)ccnc3C(C)C)c3nc(-c4c(O)cccc4F)c(F)cc23)C(C)C1 (centres undefined) + CN1CCN(c2cc(C(=O)Nc3cc4cc(-c5cnn(C)c5)ccc4cn3)ccn2)CC1 = 6.64
• COc1c(OCCCN2CCOCC2)ccc2c3n(c(=NC(=O)c4cnc(N)nc4)nc12)CCN3 + CNC(=O)c1ccc(Nc2nc(OC3CCCC3)c3c(-c4ccc5nc(C)oc5c4)c[nH]c3n2)c(OC)c1 = 27.3
• CC(CO)NC(=O)c1cc(-c2ccc(Cl)cc2)nn(-c2cnn(C)c2)c1=O (centres undefined) + CNC(=O)c1ccc(Nc2nc(OC3CCCC3)c3c(-c4ccc5nc(C)oc5c4)c[nH]c3n2)c(OC)c1 = 64.7
• COc1cccc2c1C(=O)c1c(O)c3c(c(O)c1C2=O)CC(O)(C(=O)CO)CC3OC1CC(N)C(O)C(C)O1 (centres undefined) + CNC(=O)c1ccc(Nc2nc(OC3CCCC3)c3c(-c4ccc5nc(C)oc5c4)c[nH]c3n2)c(OC)c1 = 39.9
• C#Cc1c(F)ccc2cc(O)cc(-c3ncc4c(N5CC6CCC(C5)N6)nc(OCC56CCCN5CC(F)C6)nc4c3F)c12 (centres undefined) + CN1CCN(c2cc(C(=O)Nc3cc4cc(-c5cnn(C)c5)ccc4cn3)ccn2)CC1 = 7.93
• CCN1CCN(Cc2ccc(Nc3ncc(F)c(-c4cc(F)c5nc(C)n(C(C)C)c5c4)n3)nc2)CC1 + CNC(=O)c1ccc(Nc2nc(OC3CCCC3)c3c(-c4ccc5nc(C)oc5c4)c[nH]c3n2)c(OC)c1 = 50.7
• C=C(F)C(=O)N1CCN(c2nc(OCC3CCCN3C)nc3c2CCN(c2cccc4cccc(Cl)c24)C3)CC1CC#N (centres undefined) + CN1CCN(c2cc(C(=O)Nc3cc4cc(-c5cnn(C)c5)ccc4cn3)ccn2)CC1 = 7.05
• CC(Nc1ccc2c(c1)OCCn1cc(N3C(=O)OCC3C(F)F)nc1-2)C(N)=O (centres undefined) + CN1CCN(c2cc(C(=O)Nc3cc4cc(-c5cnn(C)c5)ccc4cn3)ccn2)CC1 = 7.59
